Reference source for all entries: patent US20140112915A1

Listed below: IC50, inhibition of IFN-γ release, PBMC, Native IL-18 (LPS/IL-12) values for each entry.
# tested_system: T1, Native human IL-18 (human, UniProt Q14116 37-193)
# T1 sequence: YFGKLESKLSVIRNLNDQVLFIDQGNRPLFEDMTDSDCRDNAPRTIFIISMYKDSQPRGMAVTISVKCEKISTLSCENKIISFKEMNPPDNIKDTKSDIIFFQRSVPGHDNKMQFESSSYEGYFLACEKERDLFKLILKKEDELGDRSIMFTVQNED
# assay_protocol: cell-based or functional assay
experimental_readout: IC50, inhibition of IFN-γ release, PBMC, Native IL-18 (LPS/IL-12) (pM)

>  <binder>
MOR10222_E1Q_N30S_M54Y (antibody, human IgG1, lambda, L234A L235A, V domains shown) VH: QVQLVQSGAEVKKPGSSVKVSCKASGGTFSSYAISWVRQAPGQGLEWMGNIIPYTGQTYYAQKFQGRVTITADESTSTAYMELSSLRSEDTAVYYCARAAYHPLVFDNWGQGTLVTVSS VL: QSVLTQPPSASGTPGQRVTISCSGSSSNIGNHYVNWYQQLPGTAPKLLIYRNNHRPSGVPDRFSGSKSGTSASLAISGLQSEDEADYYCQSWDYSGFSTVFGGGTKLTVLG

>  <assay_value>
90

$$$$
>  <binder>
MOR9464_N30L (antibody, human IgG1, lambda, L234A L235A, V domains shown) VH: EVQLVQSGAEVKKPGSSVKVSCKASGGTFLSYAISWVRQAPGQGLEWMGNIIPMTGQTYYAQKFQGRVTITADESTSTAYMELSSLRSEDTAVYYCARAAYHPLVFDNWGQGTLVTVSS VL: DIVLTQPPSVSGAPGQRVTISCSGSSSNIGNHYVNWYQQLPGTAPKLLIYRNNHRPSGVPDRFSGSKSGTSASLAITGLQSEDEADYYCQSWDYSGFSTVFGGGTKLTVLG

>  <assay_value>
50

$$$$
>  <binder>
MOR9464_N30I (antibody, human IgG1, lambda, L234A L235A, V domains shown) VH: EVQLVQSGAEVKKPGSSVKVSCKASGGTFISYAISWVRQAPGQGLEWMGNIIPMTGQTYYAQKFQGRVTITADESTSTAYMELSSLRSEDTAVYYCARAAYHPLVFDNWGQGTLVTVSS VL: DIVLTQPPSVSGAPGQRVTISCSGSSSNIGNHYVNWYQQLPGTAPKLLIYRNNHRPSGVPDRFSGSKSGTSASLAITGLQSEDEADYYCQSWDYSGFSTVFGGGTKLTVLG

>  <assay_value>
110

$$$$
